experiment: Amount of fragrance ingredients retained on paper blotter after evaporation (ethanol extraction, GC-MS)
Format: physicochemical
condition-details: Table 6; fragrance TAK in C4; 60 min; 32°C
property-measured: amount of fragrance ingredient retained on blotter (percentage of the initial amount)

The cases that follow already have their amount of fragrance ingredient retained on blotter (percentage of the initial amount) on record.
CC(=O)OC1CCCCC1C(C)(C)C (centres unmarked) [Verdox™, (2-tert-butylcyclohexyl) acetate]; 64%
O=C1CCCCCCCCCCCC(=O)OCCO1 [Ethylene Brassylate]; 93%
CC(C=O)Cc1ccc(C(C)(C)C)cc1 (centres unmarked) [Lilial™, 3-(4-tert-Butylphenyl)-2-methylpropanal]; 92%
CCCCCCOC(C)=O [Hexyl acetate, Hexyl Acetate]; 5%
C=CC(C)(CCC=C(C)C)OC(C)=O (centres unmarked) [Linalyl acetate]; 62%
CC/C=C\CCOC(=O)c1ccccc1O [Cis 3-hexenyl salicylate, Cis-3-hexenyl salicylate]; 84%

Answer with the recorded amount of fragrance ingredient retained on blotter (percentage of the initial amount) for the compound listed here: C=CC(C)(O)CCC=C(C)C (centres unmarked) [Linalool]
61%

Answer with the recorded amount of fragrance ingredient retained on blotter (percentage of the initial amount) for the compound listed here: C=C(C)[C@H]1CC=C(C)CC1 [Limonene]
<1%

The reported numbers originate from patent EP3375430A1.
